Test system: human plasma proteins
method: Human plasma protein binding assay (equilibrium dialysis)
Assay type: in vitro ADME
settings: 1 μM, 2 hours, 37° C.
Reported Hu PPB by item:

Query: Hu PPB; subject: CC(=O)N1CC(NC(=O)c2nccnc2N2CC(Oc3cc(F)cc(C(F)F)c3)C2)C(F)(F)C1 (stereo not shown) [Example 6]
87.8 % bound

---
Query: Hu PPB; subject: CC(=O)N1CC2(NC(=O)c3nsnc3N3CC(Oc4cc(F)c(F)c(F)c4)C3)CC1C2 [Example 12]
88.5 % bound

Query: Hu PPB; subject: CCC(=O)N1CC(NC(=O)c2nccnc2N2CC(Oc3ccc(F)c(F)c3)C2)C(F)(F)C1 (stereo not shown) [Example 2]
89.9 % bound

Query: Hu PPB; subject: CC(=O)N1CCC(NC(=O)c2nsnc2N2CC(Oc3ccc(F)c(F)c3)C2)C1 (stereo not shown) [Example 16a]
86.2 % bound

====

Tested on: human plasma proteins
method: Human plasma protein binding assay (equilibrium dialysis)
Type: in vitro ADME
settings: 1 μM, 2 hours, 37° C.
Rule: t for Hu PPB not less than 90 % bound, f for anything less.

Example results:
Please tell me: is the compound CC(=O)N1C[C@H](NC(=O)c2nccnc2N2CC(Oc3ccc(F)c(F)c3)C2)C(F)(F)C1 [Example 8b] at or over 90 % bound in terms of Hu PPB?
f

Please tell me: is the compound CC(=O)N1C[C@H](NC(=O)c2nccnc2N2CC(Oc3cc(F)cc(F)c3)C2)C(F)(F)C1 [Example 10a] at or over 90 % bound in terms of Hu PPB?
f

---
Please tell me: is the compound CS(=O)(=O)N1CC(NC(=O)c2nccnc2N2CC(Oc3cc(F)c(F)c(F)c3)C2)C(F)(F)C1 (racemic) [Example 9] at or over 90 % bound in terms of Hu PPB?
t

Please tell me: is the compound CC(=O)N1C[C@H](NC(=O)c2nsnc2N2CC(Oc3ccc(F)c(F)c3)C2)C(F)(F)C1 [Example 13b] at or over 90 % bound in terms of Hu PPB?
t

Please tell me: is the compound CC(=O)N1CC(NC(=O)c2nccnc2N2CC(Oc3cc(F)cc(Cl)c3)C2)C(F)(F)C1 (racemic) [Example 5] at or over 90 % bound in terms of Hu PPB?
t

====

Tested on: primary human hepatocytes
method: In vitro metabolite profiling in primary human hepatocytes with or without proadifen
Assay type: in vitro ADME
settings: primary human hepatocytes; abundance of deacetylated metabolites relative to all metabolites
Reported Contribution of amide hydrolysis to metabolism (incl. secondary metabolites) by item:
Kindly answer with a numeric value in %, unit omitted.

A selection of reference data follows.
Query: Contribution of amide hydrolysis to metabolism (incl. secondary metabolites); subject: CC(=O)N1C[C@H](NC(=O)c2nccnc2N2CC(Oc3cc(F)c(F)c(F)c3)C2)C(F)(F)C1 [Example 11b]
49

Query: Contribution of amide hydrolysis to metabolism (incl. secondary metabolites); subject: CC(=O)N1CC[C@@H](NC(=O)c2nsnc2N2CC(Oc3cc(F)cc(F)c3)C2)C1 [Example 15a]
6

---
Query: Contribution of amide hydrolysis to metabolism (incl. secondary metabolites); subject: CC(=O)N1C[C@H](NC(=O)c2nccnc2N2CC(Oc3cc(F)cc(F)c3)C2)C(F)(F)C1 [Example 10a]
51

Query: Contribution of amide hydrolysis to metabolism (incl. secondary metabolites); subject: CC(=O)N1C[C@H](NC(=O)c2nccnc2N2CC(Oc3ccc(F)c(F)c3)C2)C(F)(F)C1
19

Query: Contribution of amide hydrolysis to metabolism (incl. secondary metabolites); subject: CC(=O)N1C[C@H](NC(=O)c2nsnc2N2CC(Oc3ccc(F)c(F)c3)C2)C(F)(F)C1 [Example 13b]
25

====

Test system: primary human hepatocytes
method: In vitro metabolite profiling in primary human hepatocytes with or without proadifen
Type: in vitro ADME
settings: incubations in primary human hepatocytes, 1 μM test compound
measured parameter: % Parent of drug-related material

A selection of reference data follows.
Query: % Parent of drug-related material; subject: CC(=O)N1C[C@H](NC(=O)c2nccnc2N2CC(Oc3ccc(F)c(F)c3)C2)C(F)(F)C1
84%

Query: % Parent of drug-related material; subject: CC(=O)N1C[C@H](NC(=O)c2nccnc2N2CC(Oc3cc(F)cc(F)c3)C2)C(F)(F)C1 [Example 10a]
86%

Query: % Parent of drug-related material; subject: CC(=O)N1C[C@H](NC(=O)c2nccnc2N2CC(Oc3cc(F)c(F)c(F)c3)C2)C(F)(F)C1 [Example 11b]
82%

Query: % Parent of drug-related material; subject: CC(=O)N1CC[C@@H](NC(=O)c2nsnc2N2CC(Oc3cc(F)cc(F)c3)C2)C1 [Example 15a]
92%

Consider now this further compound.
Query: % Parent of drug-related material; subject: CC(=O)N1C[C@H](NC(=O)c2nsnc2N2CC(Oc3ccc(F)c(F)c3)C2)C(F)(F)C1 [Example 13b]
70%

====

tgt: human GPR52 (Homo sapiens (Human), UniProt Q9Y2T5)
Sequence (Q9Y2T5 whole entry): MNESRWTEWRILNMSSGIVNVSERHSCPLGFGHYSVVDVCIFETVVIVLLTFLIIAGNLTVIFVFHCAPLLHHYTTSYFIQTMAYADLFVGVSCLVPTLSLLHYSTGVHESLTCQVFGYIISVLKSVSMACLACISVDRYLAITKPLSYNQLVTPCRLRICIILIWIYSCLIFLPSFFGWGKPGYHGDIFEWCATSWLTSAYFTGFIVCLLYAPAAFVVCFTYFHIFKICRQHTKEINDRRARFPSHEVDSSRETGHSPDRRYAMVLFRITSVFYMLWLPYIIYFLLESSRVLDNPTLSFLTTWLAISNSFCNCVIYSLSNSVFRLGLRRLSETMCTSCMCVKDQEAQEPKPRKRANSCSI
method: HTRF assay for direct cAMP measurement
settings: CHO-K1 cells stably expressing recombinant human GPR52, mean EC50
# EC50 binned as bottom bin (below 0.02 µM), middle bin (0.02 µM to below 0.1 µM), top bin (0.1 µM or more)

Example results:
Place this molecule in its band: CC(=O)N1CC(NC(=O)c2nccnc2N2CC(Oc3cc(F)cc(Cl)c3)C2)C(F)(F)C1 (racemic) [Example 5]
middle bin

Place this molecule in its band: CC(=O)N1CCC(NC(=O)c2nsnc2N2CC(Oc3ccc(F)c(F)c3)C2)C1 (single isomer, unassigned) [Example 16b]
top bin

Place this molecule in its band: [2H]C([2H])([2H])C(=O)N1CC(NC(=O)c2nccnc2N2CC(Oc3ccc(F)c(F)c3)C2)C(F)(F)C1 (racemic) [Example 4]
bottom bin

---
Place this molecule in its band: CC(=O)N1CC(F)C(NC(=O)c2nsnc2N2CC(Oc3ccc(F)c(F)c3)C2)C1 (single isomer, unassigned) [Example 14b]
bottom bin

Place this molecule in its band: CS(=O)(=O)N1CC(NC(=O)c2nccnc2N2CC(Oc3cc(F)c(F)c(F)c3)C2)C(F)(F)C1 (racemic) [Example 9]
bottom bin

Place this molecule in its band: CC(=O)N1C[C@H](NC(=O)c2nccnc2N2CC(Oc3cc(F)cc(F)c3)C2)C(F)(F)C1 [Example 10a]
bottom bin

====

Reported Human HepStab by item:
Test system: human hepatocytes
method: Metabolic stability in human hepatocytes
Assay type: in vitro ADME
settings: human hepatocyte suspension, 1 μM; predicted hepatic clearance as percentage of hepatic blood flow
Kindly answer with a numeric value in % QH, unit omitted.

Notebook: pull reported Human HepStab for human hepatocytes, entry CS(=O)(=O)N1CC(NC(=O)c2nccnc2N2CC(Oc3cc(F)c(F)c(F)c3)C2)C(F)(F)C1 (racemic) [Example 9]
5.8

Notebook: pull reported Human HepStab for human hepatocytes, entry O=C(NC1CNCC1(F)F)c1nccnc1N1CC(Oc2cc(F)c(F)c(F)c2)C1 (racemic) [Intermediate H-3]
27.7

Notebook: pull reported Human HepStab for human hepatocytes, entry [2H]C([2H])([2H])C(=O)N1CC(NC(=O)c2nccnc2N2CC(Oc3ccc(F)c(F)c3)C2)C(F)(F)C1 (racemic) [Example 4]
8.5

Notebook: pull reported Human HepStab for human hepatocytes, entry CC(=O)N1CC2(NC(=O)c3nsnc3N3CC(Oc4cc(F)c(F)c(F)c4)C3)CC1C2 [Example 12]
5.0

Notebook: pull reported Human HepStab for human hepatocytes, entry CC(=O)N1CC(NC(=O)c2nccnc2N2CC(Oc3cc(F)cc(Cl)c3)C2)C(F)(F)C1 (racemic) [Example 5]
17.0

---
Notebook: pull reported Human HepStab for human hepatocytes, entry CC(=O)N1CC(NC(=O)c2nccnc2N2CC(Oc3ccc(F)c(Cl)c3)C2)C(F)(F)C1 (racemic) [Example 1]
11.1

Notebook: pull reported Human HepStab for human hepatocytes, entry CC(=O)N1CC[C@@H](NC(=O)c2nsnc2N2CC(Oc3cc(F)cc(F)c3)C2)C1 [Example 15a]
6.4

Notebook: pull reported Human HepStab for human hepatocytes, entry CCC(=O)N1CC(NC(=O)c2nccnc2N2CC(Oc3ccc(F)c(F)c3)C2)C(F)(F)C1 (stereo not shown) [Example 2]
21.3

Notebook: pull reported Human HepStab for human hepatocytes, entry CC(=O)N1C[C@H](NC(=O)c2nccnc2N2CC(Oc3ccc(F)c(F)c3)C2)C(F)(F)C1 [Example 8b]
9.2

Notebook: pull reported Human HepStab for human hepatocytes, entry CC(=O)N1C[C@H](NC(=O)c2nccnc2N2CC(Oc3cc(F)cc(F)c3)C2)C(F)(F)C1 [Example 10a]
15.3

Notebook: pull reported Human HepStab for human hepatocytes, entry CC(=O)N1CC(NC(=O)c2nccnc2N2CC(Oc3cc(F)cc(OC(F)F)c3)C2)C(F)(F)C1 (racemic) [Example 7]
15.4

Notebook: pull reported Human HepStab for human hepatocytes, entry CC(=O)N1C[C@H](NC(=O)c2nccnc2N2CC(Oc3cc(F)c(F)c(F)c3)C2)C(F)(F)C1 [Example 11b]
11.4

Notebook: pull reported Human HepStab for human hepatocytes, entry CC(=O)N1CC(NC(=O)c2nccnc2N2CC(Oc3cc(F)cc(C(F)F)c3)C2)C(F)(F)C1 (stereo not shown) [Example 6]
4.8

Cited source for all entries: patent US12115157B2
